Tested on: T47D
measurementDescription: NCI tumour cell line growth inhibition, 48 h
Activity calls are given as the source filed them. No stated cut-off is given here; in the data, active = GI50 up to about 1.1 µM and inactive = higher.
parameterMeasured: GI50

compound	measured
C=CCCCCNC(=O)C[C@@H]1C2=C(CC[C@H]1O[Si](C)(C)C(C)(C)C)N1C(=O)CCC/C=C\C1C2 (some centres undefined)	12.7 µM (inactive)
COc1cc(Nc2ccc3c(c2)CCC3)nc(OC)n1	26.4 µM (inactive)
CCOC(=O)c1c(Cl)nc2ccccc2c1N=[N+]=[N-]	22.7 µM (inactive)
Cc1oc2nc1C(=O)NCc1nc(cs1)C(=O)N[C@H](C(C)C)c1nc(cs1)C(=O)N[C@H]2C	28.5 µM (inactive)
Cc1ccc2c(c1C)C(=O)/C(=C/c1cccc(C)c1C(=O)O)C2	> 100 µM (inactive)
CC1(C)C(=O)C2(N)CCC1C2 (centres undefined)	> 100 µM (inactive)
Cc1ccc2[nH]c(=O)c(-c3cnc(O)nn3)c(O)c2c1	53.2 µM (inactive)
CC(C)[C@@H]1CC[C@@H](C)C[C@H]1OC(=O)/C=C1\C(C(=O)O[C@@H]2C[C@H](C)CC[C@H]2C(C)C)[C@H]2C=C[C@@H]1O2 (some centres undefined)	75.2 µM (inactive)
COc1ccc(/C=C2\CN(C)C/C(=C\c3ccc(OC)c(OC)c3OC)C2=O)c(OC)c1OC	1.05 µM (active)

###

Test system: LOX IMVI
measurementDescription: NCI tumour cell line growth inhibition, 48 h
Activity calls are given as the source filed them. No stated cut-off is given here; in the data, active = GI50 up to about 1.1 µM and inactive = higher.
Classes used: 1 (yes) = active, 0 (no) = inactive

compound	assayedTarget	assignedClass
Cc1ccc2c(c1)CN(C(=O)CCC(=O)OCc1ccccc1)c1ccc(C)cc1CN2C(=O)CCC(=O)OCc1ccccc1	LOX IMVI	0 (no)
Cc1ccc(C(=O)Nc2ccc(CP(=O)(O)O)cc2CP(=O)(O)O)cc1NC(=O)c1cccc(NC(=O)Nc2cccc(C(=O)Nc3cc(C(=O)Nc4ccc(CP(=O)(O)O)cc4CP(=O)(O)O)ccc3C)c2)c1	LOX IMVI	0 (no)
CCCCCCc1cc2cc(-c3cn4c(n3)sc3ccccc34)c(=O)oc2cc1O	LOX IMVI	0 (no)
Cc1cc2c(cc1Cl)SSc1cc(Cl)c(C)cc1S(=O)(=O)Nc1nc(N)nn1C(O)n1nc(N)nc1NS2(=O)=O	LOX IMVI	0 (no)
O=C1CC(S(=O)(=O)O)C=C1Nc1cccc(Cl)c1 (stereo not drawn)	LOX IMVI	0 (no)
O=C(OCCC12CC3CC(CC(C3)C1)C2)c1ccc(NCc2cc(O)ccc2O)cc1	LOX IMVI	1 (yes)
COC(=O)[C@@H]1CN(C(=O)c2ccccc2)C(=O)N1C(=O)OCc1ccccc1	LOX IMVI	0 (no)
CC(C)=CCNc1nc(Cl)nc2[nH]cnc12	LOX IMVI	0 (no)

###

Test system: KM-20L2
measurementDescription: NCI tumour cell line growth inhibition, 48 h
Calls of active or inactive are those of the source. Cut-off read from the data, not from the text of the source: active = GI50 up to about 1.1 µM and inactive = higher.
Classes used: active, inactive

>>> print(df.to_string())
                                    compound  assignedclass
 0  CN1CC(=O)N2Cc3ccccc3-n3cccc3C2C1 (stereo unspecified)       inactive
 1  CC(C)(C)C(=O)N1C(C(=O)O)Cc2ccccc2[C@@H]1Cc1ccccc1 (stereo partly specified)       inactive
 2                     C#CC[N+](C)(CC#C)CC#C       inactive
 3  Cc1c2ccncc2c(C)c2c1[nH]c1ccc(OCCN(C)C)cc12         active
 4           CN(Cc1ccccc1)c1nc(=[N+](C)C)ss1       inactive
 5  C1CCCCc2nc3c(nc2CCC1)c1nc2c(nc1c1nc4c(nc31)CCCCCCCC4)CCCCCCCC2       inactive
 6  CC(N)Cc1ccc(Cl)c(Cl)c1 (stereo unspecified)       inactive
 7           Cc1ccc(C(=O)/C=C/c2ccccc2Cl)cc1       inactive
 8  COc1cc2cc3c4c(cc(OC)c(OC)c4c2cc1OC)CCN3C(=O)CCC(=O)NCCCN(C)C       inactive
 9  Cn1c(=O)nc2n(-c3cccc(Cl)c3)c3ccccc3nc-2c1=O       inactive
10  CC(C)=CCC/C(C)=C/CC/C(C)=C/C(O)c1ccccc1 (stereo unspecified)       inactive
